Every entry's value here was drawn from the supplement of paper PMC10567573.

B1: C8orf76 (parent)
chain: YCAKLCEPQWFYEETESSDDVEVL

Variants of: B1
Experiment: protein stability index of a GFP-peptide fusion (GPS, HEK-293T) (PSI 1-6); higher = more stable;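 also: lentivirally expressed fusions sorted by FACS into six bins by GFP to DsRed ratio, PSI derived from sequencing read proportions per bin multiplied by bin number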
Conditions: c terminus: a fixed tail appended
Returns 1 if the recorded protein stability index is greater than or equal to 3, and 0 otherwise.

Mutation Spec | Category Label
Y12E | 1
F11P | 1
S17K | 0
Y12I | 0
S18Y | 0
S18R | 0
K4Y | 1
Y12D | 1
D19K | 0
S18T | 0
C6N | 0
E13T | 0
K4D | 1
V23Y | 0
Y12Q | 0
Q9L | 0
E7N | 0
C6M | 0
V21N | 0
E22T | 0
T15A | 0
